What follows is a collection of GI50 values obtained with NCI-H460 lung.

According to the records, this molecule CC(C)(O)c1cncc(-c2ccc3ncnc(N4CCc5cc(F)c(Cl)cc54)c3c2)c1 displays GI50 of 1.33 µM

According to the records, this molecule COc1ccc(CNS(=O)(=O)/N=C2\NC(=O)NC2=C(Cl)Cl)cc1 displays GI50 of 2.82 µM

According to the records, this molecule COc1ccc(-c2cnc(NC(=O)CCCCCCNC(=O)C(O)(O)C(F)(F)F)s2)cc1 displays GI50 of 0.735 µM

According to the records, this molecule CNC(=O)c1cc(-c2ccc(NC(=O)Nc3ccc(N4CCN(C)CC4)c(C(F)(F)F)c3)cc2)nc2cccnc12 displays GI50 of 3.19 µM
